Each recorded value in this set is attributed to patent US5498632A.

assay: Assessment of behaviour and mortality in mice (Irwin's method); set-up: species or system mouse (male Crl:(CD-1)(ICR)BR); conditions: mouse, in vivo; oral, dose 1000, 4 animals/dose
endpoint: mortality at 120 h (%)

[[record]]
molecule = "CCCCCCCCCCCOC(=O)CC(C[N+](C)(C)C)OC(=O)CC(C)C (centres unmarked) [ST 722]"
quantityunit = "%"
resultvalue = 0

[[record]]
molecule = "CCCCCCCCCCCOC(=O)CC(C[N+](C)(C)C)OC(=O)C(C)C (centres unmarked) [ST 712]"
quantityunit = "%"
resultvalue = 0


###

Below: a set of entries, each annotated with reported MIC.
system: Streptococcus faecalis (519); assay: MIC in broth, Gram+ strains; assay type: cell-based; conditions: Enterococcus faecalis; S. faecalis (519), Mueller-Hinton broth, 37° C., 18 hours; read-out: Minimal Inhibitory Concentration (MIC)
endpoint: MIC (µg/mL)

[[record]]
compound = "CCCCCCCCCCCCCOC(=O)CC(C[N+](C)(C)C)OC(=O)CC(C)C (stereo not shown)"
rel = "="
resultvalue = 1.56

[[record]]
compound = "CCCCCCCCCCCOC(=O)CC(C[N+](C)(C)C)OC(=O)CCCCCCC (stereo not shown)"
rel = "="
resultvalue = 3.12

[[record]]
compound = "CCCCCCCCCCCOC(=O)CC(C[N+](C)(C)C)OC(=O)CCCCCC (stereo not shown)"
rel = "="
resultvalue = 3.12

[[record]]
compound = "CCCCCCCCCCCOC(=O)CC(C[N+](C)(C)C)OC(=O)CCC(C)C (stereo not shown)"
rel = "="
resultvalue = 1.56

[[record]]
compound = "CCCCCCCCCCCOC(=O)CC(C[N+](C)(C)C)OC(=O)CCCCCCCCCC (stereo not shown)"
rel = "="
resultvalue = 3.12

[[record]]
compound = "CCCCCCCCCCCCCCCC(=O)OC(CC(=O)OCCCCCCCCCCC)C[N+](C)(C)C (stereo not shown)"
rel = ">"
resultvalue = 100

[[record]]
compound = "CCCCCCCCCCCOC(=O)CC(C[N+](C)(C)C)OC(=O)CC(C)C (stereo not shown)"
rel = "="
resultvalue = 3.12

[[record]]
compound = "CCCCCCCCCCCCCCCCOC(=O)CC(C[N+](C)(C)C)OC(=O)CC(C)C (stereo not shown)"
rel = "="
resultvalue = 3.12

[[record]]
compound = "CCCCCCCCCCCCOC(=O)CC(C[N+](C)(C)C)OC(=O)CC(C)C (stereo not shown)"
rel = "="
resultvalue = 1.56

[[record]]
compound = "CCCCCCCCCCCCOC(=O)CC(C[N+](C)(C)C)OC(=O)C(C)C (stereo not shown)"
rel = "="
resultvalue = 3.12


###

Below, each entry is listed with its recorded MIC.
system: Streptococcus faecalis (518); assay: MIC in broth, Gram+ strains; format: cell-based; settings: Enterococcus faecalis; S. faecalis (518), Mueller-Hinton broth, 37° C., 18 hours; read-out: Minimal Inhibitory Concentration (MIC)
endpoint: MIC

[[record]]
compound = "CCCCCCCCCCCOC(=O)CC(C[N+](C)(C)C)OC(=O)CCCCCCCCCC (stereo not shown) [ST 982]"
measurementtarget = "Streptococcus faecalis (518)"
endpoint = "MIC"
resultvalue = "1.56 µg/mL"

[[record]]
compound = "CCCCCCCCCCCCOC(=O)CC(C[N+](C)(C)C)OC(=O)CC(C)C (stereo not shown) [ST 1037]"
measurementtarget = "Streptococcus faecalis (518)"
endpoint = "MIC"
resultvalue = "1.56 µg/mL"

[[record]]
compound = "CCCCCCCCCCCCOC(=O)CC(C[N+](C)(C)C)OC(=O)C(C)C (stereo not shown) [ST 1038]"
measurementtarget = "Streptococcus faecalis (518)"
endpoint = "MIC"
resultvalue = "3.12 µg/mL"

[[record]]
compound = "CCCCCCCCCCCOC(=O)CC(C[N+](C)(C)C)OC(=O)CCCCCC (stereo not shown) [ST 1036]"
measurementtarget = "Streptococcus faecalis (518)"
endpoint = "MIC"
resultvalue = "3.12 µg/mL"

[[record]]
compound = "CCCCCCCCCCCCCCCCOC(=O)CC(C[N+](C)(C)C)OC(=O)CC(C)C (stereo not shown) [ST 1001]"
measurementtarget = "Streptococcus faecalis (518)"
endpoint = "MIC"
resultvalue = "3.12 µg/mL"

[[record]]
compound = "CCCCCCCCCCCOC(=O)CC(C[N+](C)(C)C)OC(=O)CCCCCCC (stereo not shown) [ST 1000]"
measurementtarget = "Streptococcus faecalis (518)"
endpoint = "MIC"
resultvalue = "3.12 µg/mL"

[[record]]
compound = "CCCCCCCCCCCCCCCC(=O)OC(CC(=O)OCCCCCCCCCCC)C[N+](C)(C)C (stereo not shown) [ST 983]"
measurementtarget = "Streptococcus faecalis (518)"
endpoint = "MIC"
resultvalue = "> 100 µg/mL"

[[record]]
compound = "CCCCCCCCCCCOC(=O)CC(C[N+](C)(C)C)OC(=O)CCC(C)C (stereo not shown) [ST 1034]"
measurementtarget = "Streptococcus faecalis (518)"
endpoint = "MIC"
resultvalue = "1.56 µg/mL"

[[record]]
compound = "CCCCCCCCCCCCCOC(=O)CC(C[N+](C)(C)C)OC(=O)CC(C)C (stereo not shown) [ST 1033]"
measurementtarget = "Streptococcus faecalis (518)"
endpoint = "MIC"
resultvalue = "1.56 µg/mL"

[[record]]
compound = "CCCCCCCCCCCOC(=O)CC(C[N+](C)(C)C)OC(=O)CC(C)C (stereo not shown) [ST 722]"
measurementtarget = "Streptococcus faecalis (518)"
endpoint = "MIC"
resultvalue = "3.12 µg/mL"

